# METHOD_NOTES: Viability qHTS for spleen associated tyrosine kinase inhibitor (SYKi) naive MV4-11 cells (AID 1963823); further: nearly all actives have a fitted effect of over 40% in size
# TEST_PARAMETERS: MV4-11 AML viability, CellTiter-Glo luminescence, 72 h; series mostly up to 45 µM
Records with an inconclusive call do not appear. Calls of active or inactive are those of the source. The call rests on the fitted dose curve; in most records, active means well fitted cell-killing curve with a large enough effect; inconclusive means small, poorly fitted or top-dose-only effect, or effect the other way; inactive means no such curve, though single readings can be large or run the other way.
Write down the outcome that applies. Available outcomes: active, inactive

Q: # outcome recorded in this test, key = CC(C)(O)C1CCC2(C)C3C(O)C4C(C13)C42CO (stereo unspecified)
A: inactive

Q: # outcome recorded in this test, key = CC(C)CC1OC(=O)C2CCCN2C(=O)CCNC(=O)C(Cc2ccccc2)NC(=O)C(C(C)C)N(C)C(=O)C(C(C)C)N(C)C1=O (stereo unspecified)
A: inactive

Q: # outcome recorded in this test, key = CCCCC(CC)CNC(=O)CC(C)OC(=O)CCC(=O)O (stereo unspecified)
A: inactive

Q: # outcome recorded in this test, key = `C[C@]1(Cn2ccnn2)[C@H](C(=O)O)N2C(=O)C[C@H]2S1(=O)=O`
A: inactive

Q: # outcome recorded in this test, key = `NC(=O)c1cccc(-c2cccc(OC(=O)NC3CCCCC3)c2)c1`
A: inactive

Q: # outcome recorded in this test, key = Cc1noc(C)c1-c1cc(O)cc(C(O)c2ccccc2)c1 (stereo unspecified)
A: active

Q: # outcome recorded in this test, key = `Cc1ccc(C(=O)C(=O)O)cc1C`
A: inactive

Q: # outcome recorded in this test, key = CC(=O)/C=C/C1(O)C(C)(C)CC(O)CC1(C)O (stereo unspecified)
A: inactive

Q: # outcome recorded in this test, key = `CCN1CCN(C(=O)N[C@@H](C(=O)N[C@@H]2C(=O)N3C(C(=O)O)=C(CSc4nnnn4C)CS[C@H]23)c2ccc(O)cc2)C(=O)C1=O`
A: inactive

Q: # outcome recorded in this test, key = `N[C@@H](CCNCc1ccc(Cl)cc1)C(=O)N1CCCCC1`
A: inactive

Q: # outcome recorded in this test, key = CCn1ccnc1CC1COc2ccccc2O1 (stereo unspecified)
A: inactive

----------
# METHOD_NOTES: Viability qHTS for spleen associated tyrosine kinase inhibitor (SYKi) drug resistant MV4-11 cells (AID 1963824); further: nearly all actives have a fitted effect of over 35% in size
# TEST_PARAMETERS: SYKi-resistant MV4-11 viability, CellTiter-Glo, 72 h; series mostly up to 45 µM
Results filed as inconclusive are left out. Active and inactive are the calls of the source. Calls come from the whole dose curve; as a rule, active = well fitted cell-killing curve with a large enough effect; inconclusive = small, poorly fitted or top-dose-only effect, or effect the other way; inactive = no such curve, though single readings can be large or run the other way.
Write down the outcome that applies. Available outcomes: t (active), f (inactive)

Q: # outcome recorded in this test, key = `CC(C)(Cc1ccc2ccccc2c1)NC[C@@H](O)COc1cccc(Cl)c1C#N`
A: t

Q: # outcome recorded in this test, key = `CS(=O)(=O)c1ccccc1N1CCN(c2nc3c(c(=O)[nH]2)CSCC3)CC1`
A: f

Q: # outcome recorded in this test, key = `C=CC(=O)N1CCC(CNc2ncnc(N)c2-c2ccc(Oc3ccccc3)cc2)CC1`
A: t

Q: # outcome recorded in this test, key = `C[C@H]1C[C@H]2[C@@H]3CCC4=CC(=O)C=C[C@]4(C)[C@H]3C(=O)C[C@]2(C)[C@@]1(O)C(=O)CO`
A: f

Q: # outcome recorded in this test, key = `O=C(/C=C/c1ccc(Cl)cc1)N1CCC2(CC1)CN(Cc1ccc(Cl)c(Cl)c1)C(=O)O2`
A: t
